- testedSystem: autotaxin (Homo sapiens)
- Construct: purchased Cayman 10803
- experiment: Autotaxin inhibitor screening assay (choline release from LPC)
- Assay type: biochemical
- details: inhibition of autotaxin enzyme activity at 1 μM compound; 100 μM 14:0 LPC; read-out: Inhibition
- Procedure: Autotaxin activity was measured by choline release from LPC in presence or absence of compound. Twenty (20) ng autotaxin (10803, Cayman, MI, USA) was incubated with 100 μM 14:0 LPC (855575P, Avanti, AL, USA) in a final volume of 100 μL buffer containing 50 mM Tris pH 8.0, 0.01% Triton X-100, 50 mM CaCl2, 1 unit/ml choline oxidase, 2 unit/ml HRP, 2 mM homovanilic acid (HVA). The relative amount of released choline was measured by HVA fluorescence in a 96-well plate. […]
recordedEndpoint: inhibition at 1 µM

Some entries whose results are on file:
- CCC1Cc2ccc(C3=CCN(C(=O)CS(C)(=O)=O)CC3)cc2C1N(C)C(=O)OCc1cc(Cl)cc(Cl)c1 (stereo not drawn) [Compound 121]: < 50%
- CN(C(=O)OCc1cc(Cl)cc(Cl)c1)C1CCc2ccc(C3=CCN(CC(=O)N4CCCC4)CC3)cc21 (stereo not drawn) [Compound 13]: < 50%
- CN(C(=O)OCc1cc(Cl)cc(Cl)c1)c1coc2ccc(N3CCN(C(=O)CN4C(=O)CSC4=S)CC3)cc12 [Compound 66]: > 80%
- CN(c1nc(-c2ccc(Cl)cc2)c(C#N)s1)C1CCc2ccc(N3CCN(C(=O)CN4C(=O)CSC4=S)CC3)cc21 (stereo not drawn) [Compound 54]: < 50%
- CN(C(=O)OCc1cc(Cl)cc(Cl)c1)C1CCc2ccc(N3CCN(C(=O)CN4CCOCC4)CC3)cc21 (stereo not drawn) [Compound 34]: 50 to 80%
- CN(C(=O)OCc1cc(Cl)cc(Cl)c1)C1CCc2ccc(N3CCN(C(=O)CS(C)(=O)=O)CC3)cc21 (stereo not drawn) [Compound 37]: 50 to 80%
- CN(C(=O)CCc1cc(Cl)cc(Cl)c1)C1CCc2ccc(C3=CCN(C(=O)CCS(C)(=O)=O)CC3)cc21 (stereo not drawn) [Compound 138]: 50 to 80%
- CN(C(=O)OCc1cc(Cl)cc(Cl)c1)C1CCc2ccc(C3=CCN(C(=O)CNS(C)(=O)=O)CC3)cc21 (stereo not drawn) [Compound 29]: > 80%
- CCC1Cc2ccc(C3=CCN(CC(=O)N4CC(O)C4)CC3)cc2C1N(C)c1nc(-c2cc(Cl)cc(Cl)c2)c(C#N)s1 (stereo not drawn) [Compound 61]: < 50%
- CN(C(=O)CCc1cc(Cl)cc(Cl)c1)C1CCc2ccc(C3=CCN(C(=O)CN4C(=O)CSC4=S)CC3)cc21 (stereo not drawn) [Compound 137]: 50 to 80%

Reported inhibition at 1 µM for CN(C(=O)OCc1cc(Cl)cc(Cl)c1)C1CCc2ccc(C3=CCN(CC(=O)N4CCOCC4)CC3)cc21 (stereo not drawn) [Compound 10] was 50 to 80%

Item: CN(C(=O)OCc1cc(Cl)cc(Cl)c1)C1CCc2ccc(C3=CCN(C(=O)N4CCN(S(C)(=O)=O)C4=O)CC3)cc21 (stereo not drawn) [Compound 139] | inhibition at 1 µM: < 50%

inhibition at 1 µM measured on CCN(C(=O)OCc1cc(Cl)cc(Cl)c1)C1CCc2ccc(C3=CCN(C(=O)CN4C(=O)CSC4=S)CC3)cc21 (stereo not drawn) [Compound 130] = > 80%

Noted for CN(C(=O)OCc1cc(Cl)cc(Cl)c1)c1noc2ccc(C3=CCN(C(=O)CN4C(=O)CSC4=S)CC3)cc12 [Compound 128] : its inhibition at 1 µM reads 50 to 80%

// recorded inhibition at 1 µM for CN(C(=O)OCc1cc(Cl)cc(Cl)c1)C1CCc2ccc(C3=CCN(C(=O)CN4C(=O)C=CC4=O)CC3)cc21 (stereo not drawn) [Compound 27] : > 80%
